experiment: Activation of Wnt/beta-catenin signaling pathway in HEK293T cells in presence of Wnt3a-conditioned medium incubated for 6 hrs by luciferase reporter gene assay; assay type: cell-based; details: Homo sapiens; HEK-293T
result-type: CD

Query (molecule): CCc1cccc2c1N(C)Cc1cc3c(cc1-2)OCO3 ; field requested: CD
5 µM

Query (molecule): CCc1cccc2c1N(C)Cc1cc(O)c(O)cc1-2 ; field requested: CD
5 µM
